# system tested: Solute carrier family 12 member 5 (Homo sapiens) (UniProt Q9H2X9)
# Sequence (Q9H2X9 whole entry, looked up): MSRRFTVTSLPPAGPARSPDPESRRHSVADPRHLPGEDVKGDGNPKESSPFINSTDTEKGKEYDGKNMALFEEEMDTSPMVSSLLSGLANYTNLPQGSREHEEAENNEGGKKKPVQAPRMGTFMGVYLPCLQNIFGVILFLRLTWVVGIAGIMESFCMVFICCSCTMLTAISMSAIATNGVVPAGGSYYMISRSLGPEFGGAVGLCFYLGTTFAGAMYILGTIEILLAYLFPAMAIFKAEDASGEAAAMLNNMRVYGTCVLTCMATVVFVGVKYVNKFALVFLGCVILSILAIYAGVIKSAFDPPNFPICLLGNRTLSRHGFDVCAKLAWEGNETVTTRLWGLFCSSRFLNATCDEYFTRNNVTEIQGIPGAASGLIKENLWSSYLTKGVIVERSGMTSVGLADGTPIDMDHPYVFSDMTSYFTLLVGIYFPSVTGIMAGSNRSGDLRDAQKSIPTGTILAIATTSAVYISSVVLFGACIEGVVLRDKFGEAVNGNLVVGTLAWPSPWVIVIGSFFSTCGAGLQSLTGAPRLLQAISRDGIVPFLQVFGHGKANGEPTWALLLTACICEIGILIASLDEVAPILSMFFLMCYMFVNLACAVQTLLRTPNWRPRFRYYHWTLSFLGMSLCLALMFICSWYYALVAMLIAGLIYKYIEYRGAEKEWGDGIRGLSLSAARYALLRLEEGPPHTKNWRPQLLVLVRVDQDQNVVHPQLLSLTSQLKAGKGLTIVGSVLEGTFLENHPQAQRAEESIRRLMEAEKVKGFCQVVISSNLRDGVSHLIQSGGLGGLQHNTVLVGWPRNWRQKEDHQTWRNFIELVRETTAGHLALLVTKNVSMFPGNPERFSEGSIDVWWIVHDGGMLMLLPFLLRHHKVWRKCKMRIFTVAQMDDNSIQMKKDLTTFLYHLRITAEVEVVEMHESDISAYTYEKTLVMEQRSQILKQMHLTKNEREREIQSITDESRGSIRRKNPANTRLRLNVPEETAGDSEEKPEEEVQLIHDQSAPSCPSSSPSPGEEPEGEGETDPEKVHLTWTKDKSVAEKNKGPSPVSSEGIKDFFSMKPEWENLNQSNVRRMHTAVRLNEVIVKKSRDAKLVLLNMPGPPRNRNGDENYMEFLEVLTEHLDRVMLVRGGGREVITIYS
# assay details: modulation of human KCC2 ion transport – cell-based, HEK293 KCC2, FluoZin-2 fluorescence, MLSMR, primary screen (AID 1456);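 further: slope of fluorescence scaled to starting intensity during 10 to 20 s after thallium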
# stated conditions: KCC2 cells, thallium flux FluoZin-2 fluorescence; at 10 µM
Screen size: about 190,000 compounds; about 4,100 (2.2%) were called active. The entries come from a sample that favours actives as a whole.
# binning rule on B-score of Tl+ flux slope (higher = more flux/activation; lower = inhibition): lower: < -1; middle: ≥ -1 and < -0.2; upper: ≥ -0.2

input: Into which bin does this compound go? CN1CCN(c2ncc3c(n2)CC(c2ccccc2F)CC3=O)CC1 (stereo unspecified)
output: lower

input: // return the class label for `Cc1ccc2c(c1)nnc1nnc(SCC(=O)O)n12`
output: upper

input: Any idea which band `CCCCCC(=O)NC(=S)NNC(=O)c1ccc([N+](=O)[O-])cc1` is in?
output: upper

input: Textbook exercise: identify the category of the compound given here, O=C(Nc1ccccc1F)C1C2C=CC3(O2)C1C(=O)N(c1cccnc1)C3C(=O)NC1CCCCC1 (stereo unspecified) , according to its measured value.
output: lower

input: Lab note: which band did `CCCCCC(=O)Nc1ccc(C(=O)N/N=C/c2ccc([N+](=O)[O-])cc2)cc1` land in?
output: middle

input: Field: class (B-score of Tl+ flux slope (higher = more flux/activation; lower = inhibition)) — entry: `O=S(=O)(NCc1ccco1)c1cnc(Cl)c(Cl)c1`
output: lower

input: Which band does `O=C(NNC(=O)c1csc(-c2cccnc2)n1)Nc1ccc(Cl)cc1` fall in?
output: middle

input: Dear colleague, I would appreciate it if you could identify the bin for `O=C(NCc1cccnc1)Nc1ccccc1F` and reply at your convenience.
output: upper

input: Pick a category. Item: `COc1ccc(OC)c(-n2c(-c3ccn[nH]3)n[nH]c2=S)c1`
output: middle

input: Just checking, what class would you give CC1(C)CC(CNCCC(c2ccc(F)cc2)c2ccco2)CCO1 (stereo unspecified) here?
output: lower

input: Exercise: read the entry Cc1ccc(CN2CCN(Cc3ccc4ncccc4c3)CC2CCO)cc1 (stereo unspecified) and state which class it falls under.
output: upper

* * *

# system tested: Solute carrier family 12 member 5 (Homo sapiens) (UniProt Q9H2X9)
# assay details: modulation of human KCC2 ion transport – cell-based, HEK293 KCC2, FluoZin-2 fluorescence, MLSMR, primary screen (AID 1456);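 further: slope of fluorescence scaled to starting intensity during 10 to 20 s after thallium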
# stated conditions: KCC2 cells, thallium flux FluoZin-2 fluorescence; at 10 µM
About 4,100 (2.2%) of roughly 190,000 compounds were called active.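 Rule for the calls: active = thallium flux slope and its plate-corrected score both differing from the plate sample mean at a set confidence after two filtering rounds, in either direction; inactive = the rest.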 This is one part of a sample in which actives are shown more often than they occur.
Your reply should match one of these outcome classes. label 1 = active, label 0 = inactive

input: Hi, do you know how `CC(=O)Nc1ccc(/C=C/C(=O)c2ccccc2)cc1` came out in this test?
output: label 0

input: How did this test come out for `CC(=O)Cc1nsc(NC(=O)c2ccc(Cl)cc2Cl)n1` ?
output: label 0

input: Hi, do you know how `C/C(=N\NC(=O)CC(C)C)c1c(C(F)(F)F)[nH]n(-c2nc3ccccc3s2)c1=O` came out in this test?
output: label 0

input: Any idea what this test logged for `COc1ccc2nc(NC(=O)NC3CCCCC3)sc2c1` ?
output: label 0

input: Any idea what this test logged for `CNC(=O)c1csc(Cc2c(Cl)sc3ccc(Cl)cc23)n1` ?
output: label 0

input: // outcome(item) with item = `CC(=O)NNC(=O)c1csc(Cc2c(Cl)sc3ccc(Cl)cc23)n1`
output: label 1
